Test system: Plasmodium falciparum
Test Summary: Antimalarial activity against synchronous blood-stage Plasmodium falciparum 3D7 assessed as log of parasite reduction ratio at 10 times EC50 treated every 24 hrs for 120 hrs followed by compound washout and subsequent addition of RBCs measured after 21 days
Format: functional
Observation Type: log(activity)

compound="C[C@H]1[C@@H](O)O[C@@H]2O[C@@]3(C)CC[C@H]4[C@H](C)CC[C@@H]1[C@@]24OO3 [ARTENIMOL]" system_tested="Plasmodium falciparum" data_value=3.93
compound=CCN1CCN(Cc2ccc(NC(=O)c3cc(Cl)cc(NC(=O)c4cncc(-c5cccs5)c4)c3)cc2C(F)(F)F)CC1 system_tested="Plasmodium falciparum" data_value=3.75
compound="O=C1C(O)=C([C@H]2CC[C@H](c3ccc(Cl)cc3)CC2)C(=O)c2ccccc21 [ATOVAQUONE]" system_tested="Plasmodium falciparum" data_value=2.95
compound=CCN1CCN(Cc2ccc(NC(=O)c3cc(Cl)cc(NC(=O)c4cncc(-c5ccc(C#N)cc5)c4)c3)cc2C(F)(F)F)CC1 system_tested="Plasmodium falciparum" data_value=5.12
